Experiment: Metabolic stability in rat hepatocytes
Assay type: in vitro ADME
Details: 1 μM compound, male rat hepatocytes
QUANTITY NAME: Rat Hepatocyte CLint

{"QUERY SMILES": "COC[C@H](C(=O)Nc1cccc2c(-c3nc(Nc4cnc(C(=O)OC)c(C)c4)ncc3F)c[nH]c12)N1CCN(C)CC1", "Rat Hepatocyte CLint": "24.0 μL/min/10^6 cells"}
{"QUERY SMILES": "CCOC(=O)c1ccc(Nc2ncc(F)c(-c3c[nH]c4c(NC(=O)[C@@H](COC)N5CCN(C)CC5)cccc34)n2)cn1", "Rat Hepatocyte CLint": ">300 μL/min/10^6 cells"}
{"QUERY SMILES": "COC[C@H](C(=O)Nc1cccc2c(-c3nc(Nc4ccc(NC(=O)CO)nc4)ncc3F)c[nH]c12)N1CCN(C)CC1", "Rat Hepatocyte CLint": "38.4 μL/min/10^6 cells"}
{"QUERY SMILES": "COC[C@H](C(=O)Nc1cccc2c(-c3nc(Nc4ccnc(CO)c4)ncc3F)c[nH]c12)N1CCN(C)CC1", "Rat Hepatocyte CLint": "9.5 μL/min/10^6 cells"}
{"QUERY SMILES": "COC[C@H](C(=O)Nc1cccc2c(-c3nc(Nc4ccc(-c5cnco5)nc4)ncc3F)c[nH]c12)N1CCN(C)CC1", "Rat Hepatocyte CLint": "36.4 μL/min/10^6 cells"}

State its Rat Hepatocyte CLint for this compound: `COC[C@H](C(=O)Nc1cccc2c(-c3nc(Nc4cnn(-c5cccc(CO)c5)c4)ncc3F)c[nH]c12)N1CCN(C)CC1`
153.6 μL/min/10^6 cells

Write down Rat Hepatocyte CLint measured for item `CCC(=O)Nc1ccc(Nc2ncc(F)c(-c3c[nH]c4c(NC(=O)[C@@H](COC)N5CCN(C)CC5)cccc34)n2)cn1`
11.0 μL/min/10^6 cells

Tell me Rat Hepatocyte CLint reported for `COC[C@H](C(=O)Nc1cccc2c(-c3nc(Nc4ccc(C(=O)OC)nc4)ncc3F)c[nH]c12)N1CCN(C)CC1`
226.4 μL/min/10^6 cells

Look up and state reported Rat Hepatocyte CLint for `COC[C@H](C(=O)Nc1cccc2c(-c3nc(Nc4ccc5cn[nH]c5c4)ncc3F)c[nH]c12)N1CCN(C)CC1`
5.5 μL/min/10^6 cells

State its Rat Hepatocyte CLint for this compound: `COC[C@H](C(=O)Nc1cccc2c(-c3nc(Nc4ccc5sc(CO)nc5c4)ncc3F)c[nH]c12)N1CCN(C)CC1`
117.1 μL/min/10^6 cells

Please look at this compound and report its Rat Hepatocyte CLint: `COC[C@H](C(=O)Nc1cccc2c(-c3nc(Nc4ccc(CO)cn4)ncc3F)c[nH]c12)N1CCN(C)CC1`
>300 μL/min/10^6 cells

Tell us which Rat Hepatocyte CLint value is on record for `COC[C@H](C(=O)Nc1cccc2c(-c3nc(Nc4ccc(OCCO)nc4)ncc3F)c[nH]c12)N1CCN(C)CC1`
42.1 μL/min/10^6 cells

Fill in reported Rat Hepatocyte CLint for this entry: `COC[C@H](C(=O)Nc1cccc2c(-c3nc(Nc4ccnc(C(=O)OC)c4)ncc3F)c[nH]c12)N1CCN(C)CC1`
>300 μL/min/10^6 cells

Give recorded Rat Hepatocyte CLint. `COC[C@H](C(=O)Nc1cccc2c(-c3nc(Nc4ccc5nc[nH]c5c4)ncc3F)c[nH]c12)N1CCN(C)CC1`
2.7 μL/min/10^6 cells
